The measured values listed here are drawn from ChEMBL document CHEMBL2203167.

# selectivity ratio per record follows
assay: Therapeutic index, ratio of CC50 for human C8166 cells to EC50 for HIV1 3B; format: cell-based; conditions: read-out: Ratio CC50/EC50
Form: value (number only, do not type unit).

Field: example entries. Status: answers known.
INSERT INTO assay_data (structure_string, measured) VALUES
  ('CC(C)(NC(=O)OCc1ccccc1)c1nc(O)c(O)c(C(=O)NCC2CC2)n1', 8.33),
  ('COCCCNC(=O)c1nc(C(C)(C)NC(=O)OCc2ccccc2)nc(O)c1O', 31.2),
  ('COc1ccc(CNC(=O)c2nc(C(C)(C)NC(=O)OCc3ccccc3)nc(O)c2O)cc1', 1090);

Given "COc1cc(CNC(=O)c2nc(C(C)(C)NC(=O)OCc3ccccc3)nc(O)c2O)cc(OC)c1OC" , respond with its selectivity ratio.
8.89

---

# selectivity ratio per record follows
assay: Therapeutic index, ratio of CC50 for human C8166 cells to EC50 for HIV1 3B; assay type: cell-based; conditions: read-out: Ratio CC50/EC50
Form: value (number only, do not type unit).

Field: example entries. Status: answers known.
INSERT INTO measurements (structure_string, reported_metric, measured) VALUES
  ('CC(C)(NC(=O)OCc1ccccc1)c1nc(O)c(O)c(C(=O)NCc2ccccc2)n1', 'selectivity ratio', 128),
  ('Cc1ccc(CNC(=O)c2nc(C(C)(C)NC(=O)OCc3ccccc3)nc(O)c2O)cc1', 'selectivity ratio', 383);

// below: selectivity ratio requested for another compound
Given "CC(C)(NC(=O)OCc1ccccc1)c1nc(O)c(O)c(C(=O)NCc2ccccc2Cl)n1" , respond with its selectivity ratio.
396

---

# CC50 at 72 h per record follows
experiment: Cytotoxicity against human C8166 cells after 3 days by MTT assay; type: cell-based

Field: example entries. Status: answers known.
INSERT INTO measurements (structure_string, measured) VALUES
  ('COCCNC(=O)Nc1nc(C(C)(C)NC(=O)OCc2ccccc2)nc(O)c1O', '> 500 µM'),
  ('CC(C)(NC(=O)OCc1ccccc1)c1nc(O)c2oc(=O)[nH]c2n1', '> 500 µM');

// below: CC50 at 72 h requested for another molecule
Given "CC(C)(NC(=O)OCc1ccccc1)c1nc(O)c(O)c(C(=O)NN)n1" , respond with its CC50 at 72 h.
> 500 µM

---

# selectivity ratio per record follows
experiment: Therapeutic index, ratio of CC50 for human C8166 cells to EC50 for HIV1 3B; type: cell-based; conditions: read-out: Ratio CC50/EC50
Form: value (number only, do not type unit).

INSERT INTO assay_data (structure_string, measured) VALUES
  ('CC(C)(NC(=O)OCc1ccccc1)c1nc(O)c(O)c(NC(=O)NCc2ccc(F)cc2)n1', 8.21);

Given "COCCNC(=O)c1nc(C(C)(C)NC(=O)OCc2ccccc2)nc(O)c1O" , respond with its selectivity ratio.
13.4

Given "CC(C)(NC(=O)OCc1ccccc1)c1nc(O)c(O)c(C(=O)NCc2ccc(C(F)(F)F)cc2)n1" , respond with its selectivity ratio.
244

Given "COc1ccc(CNC(=O)Nc2nc(C(C)(C)NC(=O)OCc3ccccc3)nc(O)c2O)cc1" , respond with its selectivity ratio.
4.46

Given "CC(C)(NC(=O)OCc1ccccc1)c1nc(O)c(O)c(C(=O)NCCc2ccccc2)n1" , respond with its selectivity ratio.
3.32

Given "CC(C)(NC(=O)OCc1ccccc1)c1nc(O)c(O)c(C(=O)NCCc2ccc(F)cc2)n1" , respond with its selectivity ratio.
4.11
